Target: T1, USP38, Q8NB14
T1 chain: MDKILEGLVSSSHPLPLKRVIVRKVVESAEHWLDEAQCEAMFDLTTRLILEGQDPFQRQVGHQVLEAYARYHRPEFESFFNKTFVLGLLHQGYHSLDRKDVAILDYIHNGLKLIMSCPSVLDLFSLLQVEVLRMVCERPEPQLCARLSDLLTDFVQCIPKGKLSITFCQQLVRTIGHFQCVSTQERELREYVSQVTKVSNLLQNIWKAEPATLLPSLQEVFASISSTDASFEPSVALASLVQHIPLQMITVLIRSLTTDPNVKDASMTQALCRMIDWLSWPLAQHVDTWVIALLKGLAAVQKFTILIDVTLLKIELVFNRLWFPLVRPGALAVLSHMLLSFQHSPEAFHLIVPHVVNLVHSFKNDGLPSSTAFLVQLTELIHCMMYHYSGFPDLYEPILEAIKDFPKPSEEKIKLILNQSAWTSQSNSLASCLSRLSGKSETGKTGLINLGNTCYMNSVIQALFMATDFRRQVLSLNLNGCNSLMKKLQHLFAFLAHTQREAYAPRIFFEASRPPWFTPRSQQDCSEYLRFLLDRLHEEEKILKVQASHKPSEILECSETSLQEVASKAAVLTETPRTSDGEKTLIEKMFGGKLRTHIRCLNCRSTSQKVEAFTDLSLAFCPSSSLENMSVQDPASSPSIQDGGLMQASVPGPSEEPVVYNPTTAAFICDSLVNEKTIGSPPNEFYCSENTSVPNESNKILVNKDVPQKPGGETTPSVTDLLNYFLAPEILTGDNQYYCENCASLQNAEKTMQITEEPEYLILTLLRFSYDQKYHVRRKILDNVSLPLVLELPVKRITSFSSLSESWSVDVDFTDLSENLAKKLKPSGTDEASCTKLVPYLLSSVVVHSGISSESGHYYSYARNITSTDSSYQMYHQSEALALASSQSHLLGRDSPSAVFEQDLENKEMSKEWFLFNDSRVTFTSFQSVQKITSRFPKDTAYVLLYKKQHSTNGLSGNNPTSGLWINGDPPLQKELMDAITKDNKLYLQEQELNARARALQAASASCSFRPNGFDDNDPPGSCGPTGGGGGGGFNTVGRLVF
Assay: median log2 fold change of GCK-ALFA target abundance (FLAG IP / Myc IP barcode read proportion) (log2 ratio); each designed protein is fused to an ALFA-tag nanobody in HEK293 cells to bring the named protein to FLAG-tagged glucokinase (GCK); Myc marks an untargeted standard; higher = target protein stabilised (more abundant)
Conditions: target protein: 3xFLAG-MCP-GCK-ALFA reporter; HEK293 landing pad (RPLP)
Please go through the items and note down their median log2 fold change.

Query: Provide only the value of recorded median log2 fold change for usp_38_diff_out_1_162_48 (protein) EVEELLKKAKEKLKEAKELIKKAKEALKAGDLETAKKYLDKAWDLLGELAKLLREARRKMRELSPEERKKVRKELKKLEEEADKLIDELTKLETEVFLKE
Result: -0.368

Go through the items and report each one's median log2 fold change.
1. usp_38_diff_out_13_133_55 (protein) AAAEAARAEAEALLAETEKRVEELLKKAKEALKAGDVETAEKYVGEAAGTLLEARDRLSDLTADDPELRREVLKRLKELEEKLNELIDEVEKALREEFLK
2. usp_38_diff_out_17_60_246 (protein) SAEAEKIIKELEERLEELEKRLKELEKEFKKAKAAGDKAKLEALAKEAQALLDEIADLLVELAKNSEIIDPETFLELADRASELADRAFALLKEIQKELA
3. usp_38_diff_out_15_114_143 (protein) SEEEEAEEELRRLEIEEGLRVAEELLAELEELRKRGRLTPAREERLLLGLEGLAILAIELGDEELARRVLEALRALAEISSPETRARAEALAAELEAAMA

Result:
[0.299, -0.51, -0.119]
